I'd appreciate it if you could supply pIC50 values for the items below.
Test system: K562
Assay: Cytotoxicity against human K562 cells assessed as inhibition of cell viability after 72 hrs by MTT assay
Format: functional, cell-based
Details: K562, 72 h
Give bare numbers, as −log10 of the molar value.

N=C(S)N/N=C/c1ccc(C(F)(F)F)cc1: 5.19

I'm hoping you can list pIC50 for every compound here, please.
1. FC(F)(F)c1ccc(/C=N/Nc2nc(-c3ccc(Cl)cc3Cl)cs2)cc1
2. COc1cccc2c1C(=O)c1c(O)c3c(c(O)c1C2=O)C[C@@](O)(C(=O)CO)C[C@@H]3O[C@H]1C[C@H](N)[C@H](O)[C@H](C)O1
3. O=[N+]([O-])c1ccc(-c2csc(N/N=C/c3ccc(C(F)(F)F)cc3)n2)cc1
4. O=[N+]([O-])c1cccc(-c2csc(N/N=C/c3ccc(C(F)(F)F)cc3)n2)c1

1: 5.26; 2: 5.86; 3: 4.77; 4: 4.99

The reported pIC50 of the compound `CNC(=S)N/N=C/c1ccc(C(F)(F)F)cc1` was 4.88

###

Test: Selectivity index, ratio of IC50 for human PBMC to IC50 for human K562 cells
Type: toxicity
Details: human PBMC and human K562 cells, read-out: Ratio IC50
MEASUREMENT NAME: selectivity ratio
Answers are plain numbers.

FC(F)(F)c1ccc(/C=N/Nc2nc(-c3ccc(Cl)cc3Cl)cs2)cc1: 7.85

Would you kindly look at the next entry?
The reported selectivity ratio of the molecule `N=C(S)N/N=C/c1ccc(C(F)(F)F)cc1` was 12.5

###

System: HEp-2
Test: Cytotoxicity against human Hep2 cells assessed as inhibition of cell viability at 25 ug/ml after 72 hrs by MTT assay relative to control
Type: functional
Conditions: HEp-2, 72 h
If the reported inhibition at 25 µg/mL equals or exceeds 60%, assign condition met. If not, assign condition not met.

COc1ccc(-c2cs/c(=N/N=C/c3ccc(C(F)(F)F)cc3)n2-c2ccccc2)cc1: condition met
FC(F)(F)c1ccc(/C=N/NC(=S)Nc2ccccc2)cc1: condition met
CNC(=S)N/N=C/c1ccc(C(F)(F)F)cc1: condition met

Say whether `Cn1c(-c2ccc(Cl)cc2Cl)cs/c1=N/N=C/c1ccc(C(F)(F)F)cc1` shows inhibition at 25 µg/mL of 60% or more.
condition not met

Say whether `Fc1ccc(-c2cs/c(=N/N=C/c3ccc(C(F)(F)F)cc3)n2-c2ccccc2)cc1` shows inhibition at 25 µg/mL of 60% or more.
condition not met

Say whether `N=C(S)N/N=C/c1ccc(C(F)(F)F)cc1` shows inhibition at 25 µg/mL of 60% or more.
condition met

###

Tested on: HEp-2
Assay: Cytotoxicity against human Hep2 cells assessed as inhibition of cell viability at 25 ug/ml after 72 hrs by MTT assay relative to control
Assay type: functional
Conditions: HEp-2, 72 h
MEASUREMENT NAME: inhibition at 25 µg/mL (%)
Numbers only, in %.

Answered cases to consult:
O=[N+]([O-])c1cccc(-c2csc(N/N=C/c3ccc(C(F)(F)F)cc3)n2)c1: 84.3
O=[N+]([O-])c1ccc(-c2csc(N/N=C/c3ccc(C(F)(F)F)cc3)n2)cc1: 90
Cc1sc(N/N=C/c2ccc(C(F)(F)F)cc2)nc1-c1ccccc1: 29.5
COc1ccc(-c2cs/c(=N/N=C/c3ccc(C(F)(F)F)cc3)n2C)cc1: 53.7
FC(F)(F)c1ccc(/C=N/Nc2nc(-c3ccc(Cl)c(Cl)c3)cs2)cc1: 83.5
FC(F)(F)c1ccc(/C=N/Nc2nc(-c3ccc(Br)cc3)cs2)cc1: 17.1
FC(F)(F)c1ccc(/C=N/Nc2nc(-c3ccccc3)cs2)cc1: 34.7
COc1ccc(-c2csc(N/N=C/c3ccc(C(F)(F)F)cc3)n2)cc1: 78.2

I'm hoping you can list inhibition at 25 µg/mL for every molecule here, please.
1. FC(F)(F)c1ccc(/C=N/Nc2nc(-c3cccc4ccccc34)cs2)cc1
2. Fc1ccc(-c2csc(N/N=C/c3ccc(C(F)(F)F)cc3)n2)cc1

28.5
62.6
